# test: Solubility of active ingredient in volatile solvents (visual)
# details: 50:50 EtOH:water, aqueous with cosolvent or surfactant or cyclodextrin, thermodynamic from solid, Solubility of the active ingredient, 50:50 EtOH:water; visual
measureName: solubility

input: Entry CCS(=O)(=O)Nc1ccc2c(c1)nc(C(C)(C)C)n2CC1CCC(F)(F)CC1 [Compound I] has what solubility?
output: < 600 µg/mL

* * *

# test: Solubility of active ingredient in volatile solvents (visual)
# details: pH 3 citric acid buffer, pH 3, aqueous buffer, thermodynamic from solid, Solubility of the active ingredient, pH 3 citric buffer; visual
measureName: solubility

input: Please give the measured solubility for this molecule: CCS(=O)(=O)Nc1ccc2c(c1)nc(C(C)(C)C)n2CC1CCC(F)(F)CC1 [Compound I]
output: > 600 µg/mL

* * *

# test: Solubility of active ingredient in volatile solvents (visual)
# details: aqueous 5% SLS, aqueous with cosolvent or surfactant or cyclodextrin, thermodynamic from solid, Solubility of the active ingredient; visual
measureName: solubility

input: Reported solubility, molecule CCS(=O)(=O)Nc1ccc2c(c1)nc(C(C)(C)C)n2CC1CCC(F)(F)CC1 : ____
output: > 600 µg/mL

* * *

# test: Solubility of active ingredient in volatile solvents (visual)
# details: ethanol, organic solvent or mixture, thermodynamic from solid, Solubility of the active ingredient; visual
measureName: solubility (µg/mL)
Please reply with the bare figure in µg/mL and do not write the unit itself.

input: Query: solubility; subject: CCS(=O)(=O)Nc1ccc2c(c1)nc(C(C)(C)C)n2CC1CCC(F)(F)CC1
output: 7000

* * *

# test: Solubility of active ingredient in volatile solvents (visual)
# details: 5% Tween 80 aq., aqueous with cosolvent or surfactant or cyclodextrin, thermodynamic from solid, Solubility of the active ingredient, 5% Tween 80; visual
measureName: solubility

input: Quick check: solubility of CCS(=O)(=O)Nc1ccc2c(c1)nc(C(C)(C)C)n2CC1CCC(F)(F)CC1 ?
output: < 600 µg/mL
